The following compounds are listed with their measured t1/2 values.
# test: Half life in H2O/MeOH buffered with HEPES/NaCl at pH 7.4 in presence of alkyl radical scavenger TEMPOR by 31P[1H]-NMR analysis
# Format: physicochemical
# assay setup: buffer
quantity name: t1/2 (h)

compound	quantity name	data value
CCOP(=O)(OCC)C(N(OC(C)c1cn(C)cn1)C(C)(C)C)C(C)(C)C (stereo in doubt; form 2)	t1/2	528
CCOP(=O)(OCC)C(N(OC(C)c1n(C)cc[n+]1C)C(C)(C)C)C(C)(C)C (stereo in doubt; form 1)	t1/2	10
CCOP(=O)(OCC)C(N(OC(C)c1ncc[nH]1)C(C)(C)C)C(C)(C)C (stereo in doubt; form 1)	t1/2	81
CCOP(=O)(OCC)C(N(OC(C)c1c[nH]cn1)C(C)(C)C)C(C)(C)C (stereo in doubt; form 2)	t1/2	312
CCOP(=O)(OCC)C(N(OC(C)c1cn(C)c[n+]1C)C(C)(C)C)C(C)(C)C (stereo in doubt; form 2)	t1/2	29
CCOP(=O)(OCC)C(N(OC(C)c1nccn1C)C(C)(C)C)C(C)(C)C (stereo in doubt; form 2)	t1/2	10
CCOP(=O)(OCC)C(N(OC(C)c1nccn1C)C(C)(C)C)C(C)(C)C (stereo in doubt; form 1)	t1/2	31
CCOP(=O)(OCC)C(N(OC(C)c1n(C)cc[n+]1C)C(C)(C)C)C(C)(C)C (stereo in doubt; form 2)	t1/2	3.4
